Tested System: Renin (Homo sapiens)
Test: Inhibition of human recombinant renin assessed as decrease in plasma renin activity by competitive radioimmunoassay in presence of human plasma
Readout Name: IC50 (µM)
Kindly answer with a numeric value in µM, unit omitted.

Measured IC50 of CNC[C@H](CC1CCCCC1)NC(=O)N1CCC[C@@H]([C@@](O)(CCCNC(=O)C2CC2)c2cccc(Cl)c2)C1 : 0.079

Just so you know, measured IC50 for CNC[C@H](CC1CCCCC1)NC(=O)N1CCC[C@@H]([C@@](O)(CCCNC(C)=O)c2cccc(Cl)c2)C1 came out at 0.016

Input CNC[C@H](CC1CCCCC1)NC(=O)N1CCC[C@@H]([C@@H](OCCNC(=O)OC)c2cc(F)ccc2F)C1 . Output IC50: 0.0027

Now examine the next entry.
For reference, reported IC50 for CCOC(=O)NCCC[C@@](O)(c1cccc(Cl)c1)[C@@H]1CCCN(C(=O)N[C@H](CNC)CC2CCCCC2)C1 stands at 0.17

* * *

Test: Half life in rat at 10 mg/kg, po
Assay type: ADME, organism-based
Parameters: dose 10 mg/kg, route oral
Run Parameters: in vivo
Fulfilled if half-life is below 400 min. Not fulfilled if not; exact matches included in Not fulfilled.

Exercise: Determine if CNC[C@H](CC1CCCCC1)NC(=O)N1CCC[C@@H]([C@@H](OCCNC(=O)OC)c2cccc(Cl)c2)C1 shows half-life strictly lower than 400 min.
Solution: Not fulfilled

Exercise: Does this molecule meet the criterion half-life < 400 min? CCOCCCO[C@@H](c1ccccc1)[C@@H]1CCCN(C(=O)N[C@H](CNC)CC2CCCCC2)C1
Solution: Fulfilled

Exercise: # TODO verify half-life < 400 min strictly for this molecule: CNC[C@H](CC1CCCCC1)NC(=O)N1CCC[C@@H]([C@@H](OCCNC(=O)OC)c2cc(F)cc(Cl)c2)C1
Solution: Not fulfilled

More entries:
Exercise: Hello, I'm reviewing records and need to know if half-life of CNC[C@H](CC1CCCCC1)NC(=O)N1CCC[C@@H]([C@@](O)(CCCNC(=O)OC)c2cccc(Cl)c2)C1 is below 400 min. Could you check?
Solution: Fulfilled

Exercise: Determine whether this molecule shows half-life lower than 400 min (ties excluded): COCCCOc1cc(C[C@@H](C[C@H](N)[C@@H](O)C[C@H](C(=O)NCC(C)(C)C(N)=O)C(C)C)C(C)C)ccc1OC
Solution: Not fulfilled

Exercise: Please determine if COC(=O)NCCO[C@@H](c1cccc(Cl)c1)[C@@H]1CCCN(C(=O)N[C@H](CN)CC2CCCCC2)C1 is below 400 min in terms of half-life.
Solution: Not fulfilled

Exercise: Does this molecule meet the criterion half-life < 400 min? CNC[C@H](CC1CCCCC1)NC(=O)N1CCC[C@@H]([C@@H](OCCNC(=O)OC)c2cccc(F)c2)C1
Solution: Not fulfilled

* * *

Test: Tmax in rat at 10 mg/kg, po
Assay type: ADME, organism-based
Set-up: dose 10 mg/kg, route oral
Run Parameters: in vivo
This listing pairs compounds with measured Tmax.
Write the value in h as a bare number.

Known results for compounds:
Form field Tmax, entry CNC[C@H](CC1CCCCC1)NC(=O)N1CCC[C@@H]([C@@](O)(CCCNC(=O)OC)c2cccc(Cl)c2)C1 : 0.9

Short answer for CNC[C@H](CC1CCCCC1)NC(=O)N1CCC[C@@H]([C@@H](OCCNC(=O)OC)c2cccc(Cl)c2)C1 : Tmax was 3

Entry CNC[C@H](CC1CCCCC1)NC(=O)N1CCC[C@@H]([C@@H](OCCNC(=O)OC)c2cc(F)cc(Cl)c2)C1 — recorded Tmax = 4

Others:
Noted for CNC[C@H](CC1CCCCC1)NC(=O)N1CCC[C@@H]([C@@H](OCCNC(=O)OC)c2cccc(F)c2)C1 : its Tmax reads 2

Form field Tmax, entry COC(=O)NCCO[C@@H](c1cccc(Cl)c1)[C@@H]1CCCN(C(=O)N[C@H](CN)CC2CCCCC2)C1 : 4

* * *

Attribute: IC50
Tested System: Renin (Homo sapiens)
Sequence (P00797 whole entry): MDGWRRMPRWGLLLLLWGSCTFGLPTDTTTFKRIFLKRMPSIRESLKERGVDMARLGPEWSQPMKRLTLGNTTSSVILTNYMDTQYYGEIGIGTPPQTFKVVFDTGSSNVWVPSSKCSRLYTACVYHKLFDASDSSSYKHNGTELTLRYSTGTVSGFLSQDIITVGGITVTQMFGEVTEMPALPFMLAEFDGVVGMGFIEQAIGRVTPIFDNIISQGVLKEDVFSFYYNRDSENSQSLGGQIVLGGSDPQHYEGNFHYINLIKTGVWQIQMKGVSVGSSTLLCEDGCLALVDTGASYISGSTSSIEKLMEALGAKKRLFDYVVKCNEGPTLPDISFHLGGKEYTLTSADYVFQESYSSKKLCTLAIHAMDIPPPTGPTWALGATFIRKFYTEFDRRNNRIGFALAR
Test: Inhibition of human recombinant renin assessed as decrease in plasma renin activity by competitive radioimmunoassay in presence of human plasma
Return type: number; implicit unit nM.

# example entries with known answers
The molecule listed as CNC[C@H](CC1CCCCC1)NC(=O)N1CCC[C@@H]([C@@H](OCCNC(=O)OC)c2cccc(C)c2)C1 has a reported IC50 of 4

Input CNC[C@H](CC1CCCCC1)NC(=O)N1CCC[C@@H]([C@@H](OCCNC(=O)OC)c2cc(F)cc(F)c2)C1 . Output IC50: 1.2

For reference, reported IC50 for CNC[C@H](CC1CCCCC1)NC(=O)N1CCC[C@@H]([C@@](O)(CCCNC(N)=O)c2cccc(Cl)c2)C1 stands at 200

Query CNC[C@H](CC1CCCCC1)NC(=O)N1CCC[C@@H]([C@@H](OCCNC(=O)OC)c2ccc(F)c(F)c2)C1 yields IC50 of 16.6

Lookup result for CNC[C@H](CC1CCCCC1)NC(=O)N1CCC[C@@H]([C@@H](OCCNC(=O)OC)c2ccccc2)C1 ; measured IC50: 2.9

Others:
Looking up CNC[C@H](CC1CCCCC1)NC(=O)N1CCC[C@@H]([C@@](O)(CCCNS(N)(=O)=O)c2cccc(Cl)c2)C1 , I found its IC50 recorded as 297

Consider COC(=O)NCCO[C@@H](c1cccc(Cl)c1)[C@@H]1CCCN(C(=O)N[C@H](CN)CC2CCCCC2)C1 . Its measured IC50 is 2.6

IC50 in this record for CNC[C@H](CC1CCCCC1)NC(=O)N1CCC[C@@H]([C@@H](OCCNC(=O)OC)c2cc(F)cc(Cl)c2)C1 : 1.5

* * *

Test: Half life in human liver microsomes
Format: ADME, Microsome
Readout Name: half-life

Summary for this compound, CNC[C@H](CC1CCCCC1)NC(=O)N1CCC[C@@H]([C@@H](OCCNC(=O)OC)c2cccc(Cl)c2)C1 : half-life is > 30 min

* * *

As shown below, each of these compounds has a reported pIC50 value.
Tested System: Renin (Homo sapiens)
Test: Inhibition of trypsin-activated human recombinant renin
Entry type: numeric. Quantity: pIC50, the -log10 of concentration in molar units.

pIC50 in this record for CNC[C@H](CC1CCCCC1)NC(=O)N1CCC[C@@H]([C@@H](OCCNC(=O)OC)c2cccc(C)c2)C1 : 9.33

Entry CNC[C@H](CC1CCCCC1)NC(=O)N1CCC[C@@H]([C@@H](OCCNC(=O)OC)c2cccc(F)c2)C1 ; pIC50 = 9.23

response.value for COC(=O)NCCO[C@@H](c1cccc(F)c1)[C@@H]1CCCN(C(=O)N[C@H](CN)CC2CCCCC2)C1 (field: pIC50) = 9.24

// field: pIC50; key: CNC[C@H](CC1CCCCC1)NC(=O)N1CCC[C@@H]([C@@](O)(CCCNC(=O)N(C)C)c2cccc(Cl)c2)C1 ; value = 5.65

# pIC50 (compound: CNC[C@H](CC1CCCCC1)NC(=O)N1CCC[C@@H]([C@@H](OCCNC(=O)OC)c2cccc(F)c2F)C1 ) is 8.77

New cases:
Sample CNC[C@H](CC1CCCCC1)NC(=O)N1CCC[C@@H]([C@@](O)(CCCNC(=O)OC)c2cccc(Cl)c2)C1 ; pIC50 observed: 9.74

Sample CNC[C@H](CC1CCCCC1)NC(=O)N1CCC[C@@H]([C@@H](OCCNC(=O)OC)c2cccc(Cl)c2F)C1 ; pIC50 observed: 9.21

* * *

Test: Clearance in rat at 2 mg/kg, iv
Format: ADME, organism-based
Set-up: dose 2 mg/kg, route intravenous
Run Parameters: in vivo
Readout Name: clearance (mL/min/kg)
Give just the numeric value; mL/min/kg need not be written.

These solved cases illustrate the format of a correct answer.
In plain terms, COC(=O)NCCO[C@@H](c1cccc(Cl)c1)[C@@H]1CCCN(C(=O)N[C@H](CN)CC2CCCCC2)C1 has a documented clearance of 53

Form: molecule = CNC[C@H](CC1CCCCC1)NC(=O)N1CCC[C@@H]([C@@H](OCCNC(=O)OC)c2cccc(F)c2)C1 ; clearance = 58

The value of clearance measured for the molecule CNC[C@H](CC1CCCCC1)NC(=O)N1CCC[C@@H]([C@@](O)(CCCNC(C)=O)c2cccc(Cl)c2)C1 turned out to be 23

Short answer for CNC[C@H](CC1CCCCC1)NC(=O)N1CCC[C@@H]([C@@](O)(CCCNC(=O)OC)c2cccc(Cl)c2)C1 : clearance was 34

Continuing:
In plain terms, CNC[C@H](CC1CCCCC1)NC(=O)N1CCC[C@@H]([C@@H](OCCNC(=O)OC)c2cccc(Cl)c2)C1 has a documented clearance of 36
